System: pigweed (Amaranthus retroflexus)
ASSAY_PROTOCOL: Test A greenhouse herbicide test, pre- and postemergence
Assay type: in vivo
APPLIED_CONDITIONS: Postemergence, 500 g ai/ha; 0 to 100 scale, 0 is no effect, 100 is complete control
# Lookup of reported Pigweed plant response rating keyed by entry
When you answer, write just the number.

COc1ccc(-c2c(O)c(C)nn(C)c2=O)c2ccccc12 [Compound 58]: 20
Cn1nc(Br)c(O)c(-c2cccc3ccccc23)c1=O [Compound 20]: 100
CCC(=O)Oc1c(C)nn(C)c(=O)c1-c1c(C)ccc2ccccc12 [Compound 78]: 90
COC(=O)Oc1c(C)nn(C)c(=O)c1-c1ccc(Cl)c2ccccc12 [Compound 63]: 100
CCc1sc2ccc(C)cc2c1-c1c(O)c(C)nn(C)c1=O [Compound 47]: 100

Can you look up Pigweed plant response rating on pigweed (Amaranthus retroflexus) for Cc1ccc2ccccc2c1-c1c(O)c(Br)nn(C)c1=O [Compound 23] ?
100

###

System: foxtail, green (green foxtail, Setaria viridis)
ASSAY_PROTOCOL: Test D controlled growth environment herbicide test, pre- and postemergence
Type: in vivo
APPLIED_CONDITIONS: Preemergence, 250 g ai/ha; scale 0 to 100, 0 no effect, 100 complete control
# Lookup of reported Plant response rating, Foxtail, Green keyed by entry
When you answer, write just the number.

Cc1ccc2sc(C)c(-c3c(OC(=O)OC(C)C)c(C)nn(C)c3=O)c2c1 [Compound 66]: 70
CCc1sc2ccc(C)cc2c1-c1c(O)c(C)nn(C)c1=O [Compound 47]: 100

# query: Plant response rating, Foxtail, Green of entry Cc1ccc2ccccc2c1-c1c(OC(=O)OC(C)C)c(C)nn(C)c1=O [Compound 72]
85

Could you do the same for CCCC(=O)Oc1c(C)nn(C)c(=O)c1-c1c(C)sc2ccc(C)cc12 [Compound 105] , please?
100

###

Test system: foxtail, giant (giant foxtail, Setaria faberii)
ASSAY_PROTOCOL: Test C greenhouse herbicide test, pre- and postemergence
Format: in vivo
APPLIED_CONDITIONS: Preemergence, 250 g ai/ha; scale 0 to 100, 0 no effect, 100 complete control
OBSERVABLE: Foxtail, Giant plant response rating

Sample records with Foxtail, Giant plant response rating:
Cc1cc2ccccc2c(-c2c(O)c(C)nn(C)c2=O)c1C [Compound 34]: 70
CCc1sc2ccc(C)cc2c1-c1c(O)c(C)nn(C)c1=O [Compound 47]: 100
CCc1sc2c(C)cc(C)cc2c1-c1c(O)c(C)nn(C)c1=O [Compound 57]: 100
CCC(=O)Oc1c(OC)nn(C)c(=O)c1-c1c(C)sc2ccc(Cl)cc12 [Compound 131]: 98

# query: Foxtail, Giant plant response rating of entry CC(=O)Oc1c(C)nn(C)c(=O)c1-c1c(C)sc2ccc(Cl)cc12 [Compound 108]
95

###

Test system: pigweed, palmer (palmer pigweed, Amaranthus palmeri)
ASSAY_PROTOCOL: Test E greenhouse herbicide test, pre- and postemergence
Type: in vivo
APPLIED_CONDITIONS: 62 g ai/ha, Postemergence; scale 0 to 100 (0 no effect, 100 complete control)
OBSERVABLE: Plant response rating, Pigweed, Palmer

Sample records with Plant response rating, Pigweed, Palmer:
Cc1ccc2sc(Br)c(-c3c(O)c(C)nn(C)c3=O)c2c1: 35
Cc1nn(C)c(=O)c(-c2ccc(F)c3ccccc23)c1O: 60
Cc1cc2ccccc2c(-c2c(O)c(C)nn(C)c2=O)c1C: 80
Cn1nc(Br)c(O)c(-c2cccc3ccccc23)c1=O: 35

# query: Plant response rating, Pigweed, Palmer of entry CC(=O)Oc1c(C)nn(C)c(=O)c1-c1c(C)cc(C)c2ccccc12
30
